testSystem: T1, Factor VIIIa (recombinant FVIII, Kogenate FS, activated with alpha-thrombin) (UniProt P00451 20-2351)
T1 construct: also called FVIIIa
T1 sequence (looked up): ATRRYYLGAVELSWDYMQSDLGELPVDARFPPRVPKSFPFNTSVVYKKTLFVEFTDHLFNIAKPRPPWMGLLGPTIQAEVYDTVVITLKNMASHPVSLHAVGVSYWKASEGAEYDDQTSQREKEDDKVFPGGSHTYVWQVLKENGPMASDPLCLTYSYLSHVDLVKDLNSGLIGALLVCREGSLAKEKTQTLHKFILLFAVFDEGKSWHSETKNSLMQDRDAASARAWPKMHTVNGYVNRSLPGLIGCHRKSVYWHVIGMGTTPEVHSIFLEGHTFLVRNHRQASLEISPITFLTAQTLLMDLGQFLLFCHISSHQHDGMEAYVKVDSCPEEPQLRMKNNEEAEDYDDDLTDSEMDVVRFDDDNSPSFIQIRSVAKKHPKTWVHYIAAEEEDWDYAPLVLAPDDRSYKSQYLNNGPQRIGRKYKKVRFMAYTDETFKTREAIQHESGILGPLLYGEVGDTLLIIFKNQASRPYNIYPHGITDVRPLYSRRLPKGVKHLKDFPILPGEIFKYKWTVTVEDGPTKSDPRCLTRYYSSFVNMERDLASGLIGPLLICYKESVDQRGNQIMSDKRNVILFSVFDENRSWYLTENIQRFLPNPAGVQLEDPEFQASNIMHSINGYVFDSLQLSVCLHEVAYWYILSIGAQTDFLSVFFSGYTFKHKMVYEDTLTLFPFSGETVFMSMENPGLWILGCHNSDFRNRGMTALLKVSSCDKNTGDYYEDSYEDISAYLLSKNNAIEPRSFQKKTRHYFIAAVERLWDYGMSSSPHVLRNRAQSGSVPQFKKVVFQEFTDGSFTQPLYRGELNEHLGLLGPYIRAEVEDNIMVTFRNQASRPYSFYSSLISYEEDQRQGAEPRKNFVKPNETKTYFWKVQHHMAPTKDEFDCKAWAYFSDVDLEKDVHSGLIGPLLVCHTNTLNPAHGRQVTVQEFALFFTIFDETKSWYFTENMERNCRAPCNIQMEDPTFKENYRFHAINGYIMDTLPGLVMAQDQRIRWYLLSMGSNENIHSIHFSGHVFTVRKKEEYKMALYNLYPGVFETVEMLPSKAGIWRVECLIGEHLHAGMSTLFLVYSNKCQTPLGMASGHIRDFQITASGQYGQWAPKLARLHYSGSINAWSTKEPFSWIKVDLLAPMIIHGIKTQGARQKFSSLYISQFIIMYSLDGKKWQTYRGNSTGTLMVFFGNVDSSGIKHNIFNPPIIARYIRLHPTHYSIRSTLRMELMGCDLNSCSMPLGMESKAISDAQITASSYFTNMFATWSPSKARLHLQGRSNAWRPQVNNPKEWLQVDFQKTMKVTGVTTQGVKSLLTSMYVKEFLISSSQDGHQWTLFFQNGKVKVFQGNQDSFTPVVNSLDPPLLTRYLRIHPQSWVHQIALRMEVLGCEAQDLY
methodSummary: ratio of KD-app of wild-type FIXa (Catalyst Biosciences WT, SEQ ID NO:3) to that of the variant, same Xase assay

- binder: "FIXa-K228N/K247N/N249S/R318Y/R338E/T343R/E410N (enzyme, also called K63N/K82N/N84S/R150Y/R170E/T175R/E240N (chymotrypsin numbering)) chain 1: YNSGKLEEFVQGNLERECMEEKCSFEEAREVFENTERTTEFWKQYVDGDQCESNPCLNGGSCKDDINSYECWCPFGFEGKNCELDVTCNIKNGRCEQFCKNSADNKVVCSCTEGYRLAENQKSCEPAVPFPCGRVSVSQTSKLTR chain 2: VVGGEDAKPGQFPWQVVLNGKVDAFCGGSIVNEKWIVTAAHCVETGVNITVVAGEHNIEETEHTEQNRSVIRIIPHHNYNAAINKYNHDIALLELDEPLVLNSYVTPICIADKEYTNIFLKFGSGYVSGWGRVFHKGYSALVLQYLRVPLVDRATCLESTKFRIYNNMFCAGFHEGGRDSCQGDSGGPHVTEVEGTSFLTGIISWGEECAMKGKYGIYTKVSRYVNWIKNKTKLT"
  KD-WT/KD-mut: 12.2
- binder: "FIXa-K228N/R318Y/R338E/T343R/R403E/E410N (enzyme, also called K63N/R150Y/R170E/T175R/R233E/E240N (chymotrypsin numbering)) chain 1: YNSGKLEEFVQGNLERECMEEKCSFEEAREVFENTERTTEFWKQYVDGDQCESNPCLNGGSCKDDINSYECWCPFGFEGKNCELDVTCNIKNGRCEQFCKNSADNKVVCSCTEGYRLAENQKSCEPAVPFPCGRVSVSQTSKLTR chain 2: VVGGEDAKPGQFPWQVVLNGKVDAFCGGSIVNEKWIVTAAHCVETGVNITVVAGEHNIEETEHTEQKRNVIRIIPHHNYNAAINKYNHDIALLELDEPLVLNSYVTPICIADKEYTNIFLKFGSGYVSGWGRVFHKGYSALVLQYLRVPLVDRATCLESTKFRIYNNMFCAGFHEGGRDSCQGDSGGPHVTEVEGTSFLTGIISWGEECAMKGKYGIYTKVSEYVNWIKNKTKLT"
  KD-WT/KD-mut: 5.4
